tested_system: Neuronal acetylcholine receptor; alpha4/beta2 (Homo sapiens, UniProt P17787+P43681)
Sequence (P17787 whole entry): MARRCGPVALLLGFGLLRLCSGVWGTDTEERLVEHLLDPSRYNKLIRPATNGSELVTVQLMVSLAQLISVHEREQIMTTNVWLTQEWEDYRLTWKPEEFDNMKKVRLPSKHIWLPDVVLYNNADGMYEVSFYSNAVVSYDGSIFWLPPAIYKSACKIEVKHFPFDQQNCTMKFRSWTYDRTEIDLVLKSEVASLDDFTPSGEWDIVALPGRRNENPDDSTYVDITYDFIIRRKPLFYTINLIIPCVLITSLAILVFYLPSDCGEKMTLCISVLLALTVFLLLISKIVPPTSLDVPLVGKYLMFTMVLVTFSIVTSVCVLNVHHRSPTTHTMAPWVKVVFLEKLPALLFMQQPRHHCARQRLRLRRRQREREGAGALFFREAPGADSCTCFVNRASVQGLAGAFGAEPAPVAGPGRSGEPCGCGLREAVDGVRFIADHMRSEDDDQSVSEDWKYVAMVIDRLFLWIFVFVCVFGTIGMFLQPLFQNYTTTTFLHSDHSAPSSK
Sequence (P43681 whole entry): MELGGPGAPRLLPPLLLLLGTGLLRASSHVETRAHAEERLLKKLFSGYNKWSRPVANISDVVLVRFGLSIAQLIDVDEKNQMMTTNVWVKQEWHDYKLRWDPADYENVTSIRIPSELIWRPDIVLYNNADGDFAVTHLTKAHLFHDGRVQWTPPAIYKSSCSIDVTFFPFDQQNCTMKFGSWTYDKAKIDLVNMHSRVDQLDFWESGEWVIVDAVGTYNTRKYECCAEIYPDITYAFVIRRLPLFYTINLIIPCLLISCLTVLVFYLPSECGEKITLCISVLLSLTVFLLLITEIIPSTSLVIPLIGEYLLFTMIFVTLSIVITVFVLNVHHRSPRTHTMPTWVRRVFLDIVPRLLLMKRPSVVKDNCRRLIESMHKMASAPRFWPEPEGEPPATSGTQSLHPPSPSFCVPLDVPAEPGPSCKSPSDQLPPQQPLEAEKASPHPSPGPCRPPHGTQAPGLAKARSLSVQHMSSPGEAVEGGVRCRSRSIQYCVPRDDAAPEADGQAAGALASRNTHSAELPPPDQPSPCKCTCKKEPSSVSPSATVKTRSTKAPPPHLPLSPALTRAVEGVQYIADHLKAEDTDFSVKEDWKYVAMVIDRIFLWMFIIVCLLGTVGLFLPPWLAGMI
assay_text: Activity at human alpha-4-beta-2 nACh receptor expressed in Xenopus oocytes assessed as inhibition of acetyl chlone-induced currents by two-electrode voltage clamp method
experimental_endpoint: pIC50
Formally, pIC50 is defined as -log10 of the concentration c, with c in mol/L.

Looking up C=CC(C)(C)c1[nH]c2cc(Br)ccc2c1CCNC [DESFORMYLFLUSTRABROMINE] , I found its pIC50 recorded as 3.82
